Catalogue of molecules with associated Average Relative Light Units ± Standard Deviation
- System: HeLa cells
- assay_procedure: Luciferase Protein Expression Assay in HeLa Cells
- Assay type: cell-based, Human
- test_parameters: LNPs encapsulating Luciferase mRNA, 25 ng per well, N=4 wells; 5 h serum-free then 24 h; ONE-Glo
Counter-ions that a name gives are not always drawn.
Numeric only. Scale: Relative Light Units

Previously resolved entries follow.
molecule	target_or_system	test_result
CC[C@H](CC[C@@H](C)[C@H]1CC[C@H]2[C@@H]3CC=C4C[C@@H](OC(=O)CCC(=O)N(CCCCNCCC(C)(C)N)CCC(C)(C)N)CC[C@]4(C)[C@H]3CC[C@]12C)C(C)C [SA161, trihydrochloride]	HeLa cells	17839.3
CC[C@H](CC[C@@H](C)[C@H]1CC[C@H]2[C@@H]3CC=C4C[C@@H](OC(=O)CCC(=O)N(CCCCCCCC(C)N)CCC(C)N)CC[C@]4(C)[C@H]3CC[C@]12C)C(C)C (stereo partly shown) [SA163, dihydrochloride]	HeLa cells	30168
CC(C)CCC[C@@H](C)[C@H]1CC[C@H]2[C@@H]3CC=C4C[C@@H](SSCCC(=O)N(CCCCNCCC(C)(C)N)CCC(C)(C)N)CC[C@]4(C)[C@H]3CC[C@]12C.Cl.Cl.Cl	HeLa cells	22039.8
CC[C@H](CC[C@@H](C)[C@H]1CC[C@H]2[C@@H]3CC=C4C[C@@H](OC(=O)N(CCCCNC(C)CCN)C(C)CCN)CC[C@]4(C)[C@H]3CC[C@]12C)C(C)C (stereo partly shown) [SA113, trihydrochloride]	HeLa cells	20665.4
CC(C)CCC[C@@H](C)[C@H]1CC[C@H]2[C@@H]3CC=C4C[C@@H](OC(=O)N(CCCC(C)(C)N)CCC(C)(C)N)CC[C@]4(C)[C@H]3CC[C@]12C [SA157, dihydrochloride]	HeLa cells	24130.4

[in] // returns reported Average Relative Light Units ± Standard Deviation for input CC[C@H](CC[C@@H](C)[C@H]1CC[C@H]2[C@@H]3CC=C4C[C@@H](OC(=O)CCC(=O)N(CCCCCCCC(C)(C)N)CCC(C)(C)N)CC[C@]4(C)[C@H]3CC[C@]12C)C(C)C [SA165, dihydrochloride]
[out] 33585.6

[in] // returns reported Average Relative Light Units ± Standard Deviation for input CC[C@H](CC[C@@H](C)[C@H]1CC[C@H]2[C@@H]3CC=C4C[C@@H](OC(=O)CCCC(=O)N(CCCN)CCCCNCCCN)CC[C@]4(C)[C@H]3CC[C@]12C)C(C)C [SA117, trihydrochloride]
[out] 10134.1
